molecular target: HLA-B*53:01; test: IEDB peptide-MHC binding, purified MHC/competitive/radioactivity; filed as Kd, often an IC50 or EC50 that approximates it; bounds were set here for any values at or beyond the usual limits of such assays; settings: source organism: Triticum aestivum
pKd: −log10 of the molar value.
endpoint: pKd

a = QPFPSQQPY
b = VPLVQQQQFL
Just curious, which one has the larger pKd reading, a or b ? When you have decided, please share the label of that item.
b

---

molecular target: HLA-B*44:02; assay: IEDB peptide-MHC binding, purified MHC/competitive/radioactivity; filed as Kd, often an IC50 or EC50 that approximates it; bounds were set here for any values at or beyond the usual limits of such assays; details: source organism: Mammarenavirus whitewaterense
endpoint: Kd (nM)
Lab book: enter the figure in nM, no units written.

// returns reported Kd for input `LEITDVTTL`
25.7
